Test system: MCF7
Assay: Antiproliferative activity against human MCF7 cells by fluorescence based viable cell counting method
Type: functional
Settings: Homo sapiens, MCF7; read-out: IC50
pIC50: −log10 of the molar value.
Catalogue of pIC50 readings, one per entry.
Parameter measured: pIC50

> print(dat)
                                    compound  value.modifier  experimental.result
 1  COP(=O)(OC)C(c1cc(C(C)(C)C)c(O)c(C(C)(C)C)c1)c1ccc(N)nc1N (stereo not drawn)               =                 4.51
 2  COP(=O)(OC)C(c1cc(C(C)(C)C)c(O)c(C(C)(C)C)c1)c1ccc(N)cc1N (stereo not drawn)               <                 4.00
 3  CC(C)(C)c1cc(CP(=O)(Oc2ccccc2)Oc2ccccc2)cc(C(C)(C)C)c1O               <                 4.00
 4  CC(C)(C)C1=CC(=CP(=O)(Oc2ccccc2)Oc2ccccc2)C=C(C(C)(C)C)C1=O               =                 4.42
 5  CC(C)OP(=O)(OC(C)C)C(c1cc(C(C)(C)C)c(O)c(C(C)(C)C)c1)c1ccc(N)nc1N (stereo not drawn)               =                 4.66
 6  CCOP(=O)(OCC)C(c1cc(C(C)(C)C)c(O)c(C(C)(C)C)c1)c1ccc(N)cc1N (stereo not drawn)               =                 4.17
 7  CC(C)OP(=O)(Cc1cc(C(C)(C)C)c(O)c(C(C)(C)C)c1)OC(C)C               =                 4.17
 8  COP(=O)(C=C1C=C(C(C)(C)C)C(=O)C(C(C)(C)C)=C1)OC               <                 4.00
 9  COP(=O)(Cc1cc(C(C)(C)C)c(O)c(C(C)(C)C)c1)OC               <                 4.00
10  CCOP(=O)(OCC)C(c1cc(C(C)(C)C)c(O)c(C(C)(C)C)c1)c1ccc(N)nc1N (stereo not drawn)               =                 4.47
11  CC(C)(C)c1cc(C(c2ccc(N)nc2N)P(=O)(Oc2ccccc2)Oc2ccccc2)cc(C(C)(C)C)c1O (stereo not drawn)               =                 4.80
12  CCCOP(=O)(OCCC)C(c1cc(C(C)(C)C)c(O)c(C(C)(C)C)c1)c1ccc(N)nc1N (stereo not drawn)               =                 4.49
13  CC(C)OP(=O)(C=C1C=C(C(C)(C)C)C(=O)C(C(C)(C)C)=C1)OC(C)C               =                 4.18
